- tested target: T1, Dimeric human CD48-mFc (human)
- T1 chain: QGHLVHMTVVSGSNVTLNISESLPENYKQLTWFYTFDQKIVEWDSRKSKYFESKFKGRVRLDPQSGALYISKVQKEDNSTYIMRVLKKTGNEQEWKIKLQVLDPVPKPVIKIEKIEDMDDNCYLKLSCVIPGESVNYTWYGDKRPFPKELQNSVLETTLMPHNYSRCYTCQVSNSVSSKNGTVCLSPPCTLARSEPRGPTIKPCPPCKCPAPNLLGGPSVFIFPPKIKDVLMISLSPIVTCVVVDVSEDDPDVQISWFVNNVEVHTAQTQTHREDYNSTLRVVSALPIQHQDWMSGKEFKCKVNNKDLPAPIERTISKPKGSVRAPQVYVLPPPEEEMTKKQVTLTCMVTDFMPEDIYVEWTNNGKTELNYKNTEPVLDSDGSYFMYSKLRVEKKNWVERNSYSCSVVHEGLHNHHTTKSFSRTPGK
- experiment description: SPR (Biacore T100), 25 C, antibody captured by anti-Fc, dimeric CD48-mFc in solution
endpoint: log10 of koff (log10 of the value in s⁻¹)
Please note: log10 values; quantity koff; unit s⁻¹.

Illustrative cases are given below, each with its answer.
binder: H4H1771P (antibody, human IgG4, V domains shown, Human IgG4 Fc (prefix H4H)) VH: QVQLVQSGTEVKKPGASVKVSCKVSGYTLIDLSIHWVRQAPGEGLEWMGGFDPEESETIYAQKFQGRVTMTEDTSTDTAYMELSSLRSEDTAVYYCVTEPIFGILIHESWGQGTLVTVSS VL: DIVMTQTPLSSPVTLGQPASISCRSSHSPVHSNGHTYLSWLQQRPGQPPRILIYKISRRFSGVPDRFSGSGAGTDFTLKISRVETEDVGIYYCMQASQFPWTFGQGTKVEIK
observed result: -4.82
--
binder: H4H1778P (antibody, human IgG4, V domains shown, Human IgG4 Fc (prefix H4H)) VH: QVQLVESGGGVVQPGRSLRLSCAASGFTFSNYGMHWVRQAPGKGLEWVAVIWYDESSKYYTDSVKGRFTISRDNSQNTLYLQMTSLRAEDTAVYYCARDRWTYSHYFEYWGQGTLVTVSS VL: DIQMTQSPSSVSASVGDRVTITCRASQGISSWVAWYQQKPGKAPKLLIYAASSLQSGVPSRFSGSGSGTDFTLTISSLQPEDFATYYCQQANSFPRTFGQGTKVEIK
observed result: -5.05
--
binder: H4H1774P (antibody, human IgG4, V domains shown, Human IgG4 Fc (prefix H4H)) VH: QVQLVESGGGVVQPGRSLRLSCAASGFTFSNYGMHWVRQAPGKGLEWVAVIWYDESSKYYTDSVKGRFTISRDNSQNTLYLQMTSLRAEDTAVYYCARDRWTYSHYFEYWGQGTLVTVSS VL: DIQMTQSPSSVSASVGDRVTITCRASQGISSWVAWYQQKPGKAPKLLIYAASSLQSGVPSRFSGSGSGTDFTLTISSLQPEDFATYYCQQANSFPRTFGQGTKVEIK
observed result: -5.33
--
binder: H4H1779P (antibody, human IgG4, V domains shown, Human IgG4 Fc (prefix H4H)) VH: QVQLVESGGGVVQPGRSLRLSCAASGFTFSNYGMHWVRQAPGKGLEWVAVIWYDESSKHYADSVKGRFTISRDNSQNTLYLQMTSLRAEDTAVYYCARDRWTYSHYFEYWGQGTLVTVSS VL: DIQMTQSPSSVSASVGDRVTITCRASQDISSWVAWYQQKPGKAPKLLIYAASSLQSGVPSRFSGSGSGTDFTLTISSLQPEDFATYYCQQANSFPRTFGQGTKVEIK
observed result: -4.93

// next item, log10 of koff requested
In: // fetch log10 of koff given entry H2M1707N (antibody, mouse IgG2, V domains shown) VH: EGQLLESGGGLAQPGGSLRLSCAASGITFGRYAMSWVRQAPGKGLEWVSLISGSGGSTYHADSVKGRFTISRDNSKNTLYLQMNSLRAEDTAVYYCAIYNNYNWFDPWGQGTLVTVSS VL: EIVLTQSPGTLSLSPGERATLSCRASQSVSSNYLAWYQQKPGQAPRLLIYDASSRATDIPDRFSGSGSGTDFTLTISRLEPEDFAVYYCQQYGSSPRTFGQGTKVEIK
Out: -4.18
